Values were extracted from patent US20260056186A1.

Reported pEC50 values follow for various binders
- TARGET UNDER TEST: T1, BAFF (Sino biological, 10056-HNCH) (UniProt Q9Y275 134-285, biotinylated in the blocking ELISA (site not stated))
- T1 construct: also called BLyS
- T1 sequence (Q9Y275 134-285 limits assumed): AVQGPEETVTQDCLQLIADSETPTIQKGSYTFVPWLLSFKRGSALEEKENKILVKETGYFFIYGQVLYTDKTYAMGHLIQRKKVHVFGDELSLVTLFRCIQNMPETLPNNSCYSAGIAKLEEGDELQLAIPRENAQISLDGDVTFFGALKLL
- PROTOCOL NOTES: ELISA, BAFF coated at 1 ug/mL, anti-human IgG-HRP
pEC50: −log10 of the molar value.
MEASUREMENT KIND: pEC50

>>> reported_result("TACI-9-2-Fc (Fc fusion) SLSCSKEQGKFYDHLLRDCISCASICGQHPKQCAYFCENKLDKTHTCPPCPAPEAEGAPSVFLFPPKPKDTLMISRTPEVTCVVVDVSHEDPEVKFNWYVDGVEVHNAKTKPREEQYNSTYRVVSVLTVLHQDWLNGKEYKCKVSNKALPSSIEKTISKAKGQPREPQVYTLPPSRDELTKNQVSLTCLVKGFYPSDIAVEWESNGQPENNYKTTPPVLDSDGSFFLYSKLTVDKSRWQQGNVFSCSVMHEALHNHYTQKSLSLSPGK")
9.56
>>> reported_result("TACI-9-6-Fc (Fc fusion) SRSCRKEQGKFYDHLLRTCISCASICGQHPKQCAYFCENKLDKTHTCPPCPAPEAEGAPSVFLFPPKPKDTLMISRTPEVTCVVVDVSHEDPEVKFNWYVDGVEVHNAKTKPREEQYNSTYRVVSVLTVLHQDWLNGKEYKCKVSNKALPSSIEKTISKAKGQPREPQVYTLPPSRDELTKNQVSLTCLVKGFYPSDIAVEWESNGQPENNYKTTPPVLDSDGSFFLYSKLTVDKSRWQQGNVFSCSVMHEALHNHYTQKSLSLSPGK")
9.44
